- assayed_system: T1, full-length trimeric SARS-CoV-2 Spike protein (Spike-H6) (SARS-CoV-2, N-glycosylated (22 N-glycosylation sites))
- T1 construct: also called trimeric Spike; full-length Spike-H6
- assay_overview: ELISA screen
value_type: Mean normalized OD (OD)
# number only, unit OD dropped from output

Q: Fill in Mean normalized OD for record Frem1 CRD-mouse IgG2a-Fc fusion protein (Fc fusion) HSGYCHILVTRQKGTWTTATRACREQHQGDLVTVLSRRHMQWLWAMSGRKPFWIGLKNQPRTGHWEWIGGEPVAFTNWRRGAPLHPKPGKNCALVQKRGQWQTKNCSKGKAHNFVGGGSGGGSGGGS
Result: 0.03

Q: Fill in Mean normalized OD for record Asgr1 CRD-mouse IgG2a-Fc fusion protein (Fc fusion) YEGSCYWFSSSVRPWTEADKYCQLENAHLVVVTSRDEQNFLQRHMGPLNTWIGLTDQNGPWKWVDGTDYETGFQNWRPEQPDNWYGHGLGGGEDCAHFTTDGRWNDDVCRRPYRWVCEGGGSGGGSGGGS
Result: 0.121

Q: Fill in Mean normalized OD for record Lgals4_2 CRD-mouse IgG2a-Fc fusion protein (Fc fusion) YVGALQGGLTVRRTIIIKGYVLPTARNFVINFKVGSSGDIALHLNPRIGDSVVRNSFMNGSWGAEERKVAYNPFGPGQFFDLSIRCGMDRFKVFANGQHLFDFSHRFQAFQMVDTLEINGDITLSYVQIGGGSGGGSGGGS
Result: 0.034

Q: Fill in Mean normalized OD for record Mrc1_6 CRD-mouse IgG2a-Fc fusion protein (Fc fusion) YKNKCFKIFGFANEEKKSWQDARQACKGLKGNLVSIENAQEQAFVTYHMRDSTFNAWTGLNDINAEHMFLWTAGQGVHYTNWGKGYPGGRRSSLSYEDADCVVVIGGNSREAGTWMDDTCDSKQGYICQGGGSGGGSGGGS
Result: 0.004
